Molecular target: TMEM63B
Assay: reporter assay of Huesken 2005; further: test concentration or dose not given here
Conditions: siRNA
Oligonucleotides are given in HELM: sugar(base)linkage, 5' to 3'; d 2'-deoxyribose, r ribose, m 2'-O-methylribose, p phosphate. ss, as = sense and antisense strand
measure_name: normalised inhibition (eCFP-eYFP dual reporter) (%)
The response must be a number in % with no trailing unit.

Input line: Identify normalised inhibition (eCFP-eYFP dual reporter) associated with the substance "RNA1{r(A)p.r(C)p.r(A)p.r(G)p.r(C)p.r(C)p.r(A)p.r(U)p.r(G)p.r(A)p.r(C)p.r(C)p.r(G)p.r(G)p.r(U)p.r(A)p.r(U)p.r(G)p.r(A)p.d(T)p.d(T)}|RNA2{r(U)p.r(C)p.r(A)p.r(U)p.r(A)p.r(C)p.r(C)p.r(G)p.r(G)p.r(U)p.r(C)p.r(A)p.r(U)p.r(G)p.r(G)p.r(C)p.r(U)p.r(G)p.r(U)p.d(C)p.d(C)}$$$RNA1{StrandType:ss}|RNA2{StrandType:as}$"
Output line: 56.4

Input line: Identify normalised inhibition (eCFP-eYFP dual reporter) associated with the substance "RNA1{r(G)p.r(G)p.r(C)p.r(C)p.r(A)p.r(A)p.r(G)p.r(C)p.r(U)p.r(G)p.r(G)p.r(A)p.r(C)p.r(A)p.r(A)p.r(G)p.r(A)p.r(A)p.r(G)p.d(T)p.d(T)}|RNA2{r(C)p.r(U)p.r(U)p.r(C)p.r(U)p.r(U)p.r(G)p.r(U)p.r(C)p.r(C)p.r(A)p.r(G)p.r(C)p.r(U)p.r(U)p.r(G)p.r(G)p.r(C)p.r(C)p.d(G)p.d(G)}$$$RNA1{StrandType:ss}|RNA2{StrandType:as}$"
Output line: 65

Input line: Identify normalised inhibition (eCFP-eYFP dual reporter) associated with the substance "RNA1{r(C)p.r(G)p.r(C)p.r(U)p.r(C)p.r(A)p.r(G)p.r(G)p.r(U)p.r(G)p.r(C)p.r(U)p.r(G)p.r(C)p.r(A)p.r(G)p.r(G)p.r(A)p.r(C)p.d(T)p.d(T)}|RNA2{r(G)p.r(U)p.r(C)p.r(C)p.r(U)p.r(G)p.r(C)p.r(A)p.r(G)p.r(C)p.r(A)p.r(C)p.r(C)p.r(U)p.r(G)p.r(A)p.r(G)p.r(C)p.r(G)p.d(A)p.d(T)}$$$RNA1{StrandType:ss}|RNA2{StrandType:as}$"
Output line: 46.2

====

Target: UBE2E3
Experiment: reporter assay of Huesken 2005
Conditions: siRNA
Oligonucleotides are written 5' to 3', each unit as a sugar letter and its base; * is a phosphorothioate linkage, no mark a phosphodiester; rarer units and linkages stand in square brackets, end groups in braces. Plain capitals give the bases only. d = 2'-deoxy (DNA); r = 2'-OH (RNA)
measure_name: normalised inhibition (eCFP-eYFP dual reporter) (%)
The response must be a number in % with no trailing unit.

Input line: Identify normalised inhibition (eCFP-eYFP dual reporter) associated with the substance sense rUrCrUrCrUrArGrCrArArArArCrCrArCrUrGrCdTdT / antisense rGrCrArGrUrGrGrUrUrUrUrGrCrUrArGrArGrAdGdT
Output line: 35.9

Input line: Identify normalised inhibition (eCFP-eYFP dual reporter) associated with the substance sense rArGrCrUrGrArArArUrArArCrCrCrUrUrGrArUdTdT / antisense rArUrCrArArGrGrGrUrUrArUrUrUrCrArGrCrUdAdG
Output line: 82

Input line: Identify normalised inhibition (eCFP-eYFP dual reporter) associated with the substance sense rUrCrArArCrArGrUrCrArGrGrGrArGrUrCrArUdTdT / antisense rArUrGrArCrUrCrCrCrUrGrArCrUrGrUrUrGrAdTdG
Output line: 74.7

====

Molecular target: UFC1
Test: reporter assay of Huesken 2005
Conditions: siRNA
Oligonucleotides are written 5' to 3', each unit as a sugar letter and its base; * is a phosphorothioate linkage, no mark a phosphodiester; rarer units and linkages stand in square brackets, end groups in braces. Plain capitals give the bases only. d = 2'-deoxy (DNA); r = 2'-OH (RNA)
measure_name: normalised inhibition (eCFP-eYFP dual reporter) (%)
The response must be a number in % with no trailing unit.

Input line: Identify normalised inhibition (eCFP-eYFP dual reporter) associated with the substance sense rUrGrGrCrArGrUrGrGrArArArUrCrCrCrUrGrAdTdT / antisense rUrCrArGrGrGrArUrUrUrCrCrArCrUrGrCrCrAdGdC
Output line: 71.4

Input line: Identify normalised inhibition (eCFP-eYFP dual reporter) associated with the substance sense rGrCrCrCrCrArGrArArArUrUrGrCrArGrUrUrCdTdT / antisense rGrArArCrUrGrCrArArUrUrUrCrUrGrGrGrGrCdAdG
Output line: 61.7

Input line: Identify normalised inhibition (eCFP-eYFP dual reporter) associated with the substance sense rArUrCrUrCrArUrGrGrCrUrCrUrGrGrGrGrCrUdTdT / antisense rArGrCrCrCrCrArGrArGrCrCrArUrGrArGrArUdGdA
Output line: 53.8

====

Target: UBE2L3
Assay: reporter assay of Huesken 2005
Details: siRNA
Oligonucleotides are written 5' to 3', each unit as a sugar letter and its base; * is a phosphorothioate linkage, no mark a phosphodiester; rarer units and linkages stand in square brackets, end groups in braces. Plain capitals give the bases only. d = 2'-deoxy (DNA); r = 2'-OH (RNA)
Give measured normalised inhibition (eCFP-eYFP dual reporter) for each item. Keep answers brief.
The response must be a number in % with no trailing unit.

Input line: Identify normalised inhibition (eCFP-eYFP dual reporter) associated with the substance sense rGrCrUrArArUrUrUrArUrUrGrArCrUrUrGrGrCdTdT / antisense rGrCrCrArArGrUrCrArArUrArArArUrUrArGrCdTdT
Output line: 46.2

Input line: Identify normalised inhibition (eCFP-eYFP dual reporter) associated with the substance sense rCrArArArGrArUrCrUrArUrCrArCrCrCrArArAdTdT / antisense rUrUrUrGrGrGrUrGrArUrArGrArUrCrUrUrUrGdTdT
Output line: 82.8

Input line: Identify normalised inhibition (eCFP-eYFP dual reporter) associated with the substance sense rArGrCrArCrCrCrGrCrUrUrCrGrGrGrCrUrGrAdTdT / antisense rUrCrArGrCrCrCrGrArArGrCrGrGrGrUrGrCrUdCdA
Output line: 37.6

====

Give measured normalised inhibition (eCFP-eYFP dual reporter) for each item. Keep answers brief.
Target: P2rx2 (rat)
Assay: reporter assay of Huesken 2005
Conditions: siRNA
Oligonucleotides are written 5' to 3', each unit as a sugar letter and its base; * is a phosphorothioate linkage, no mark a phosphodiester; rarer units and linkages stand in square brackets, end groups in braces. Plain capitals give the bases only. d = 2'-deoxy (DNA); r = 2'-OH (RNA)
The response must be a number in % with no trailing unit.

Input line: Identify normalised inhibition (eCFP-eYFP dual reporter) associated with the substance sense rUrArCrCrUrCrArArGrCrArUrUrGrCrArCrArUdTdT / antisense rArUrGrUrGrCrArArUrGrCrUrUrGrArGrGrUrAdGdT
Output line: 72.3

Input line: Identify normalised inhibition (eCFP-eYFP dual reporter) associated with the substance sense rArCrUrCrCrCrArGrGrArUrCrArGrCrCrArCrCdTdT / antisense rGrGrUrGrGrCrUrGrArUrCrCrUrGrGrGrArGrUdAdG
Output line: 44.7

Input line: Identify normalised inhibition (eCFP-eYFP dual reporter) associated with the substance sense rArCrUrUrCrUrGrArCrArArCrCrArUrUrUrUrCdTdT / antisense rGrArArArArUrGrGrUrUrGrUrCrArGrArArGrUdTdC
Output line: 33.5

Input line: Identify normalised inhibition (eCFP-eYFP dual reporter) associated with the substance sense rGrGrArArGrArCrArArArGrUrGrUrGrGrGrArCdTdT / antisense rGrUrCrCrCrArCrArCrUrUrUrGrUrCrUrUrCrCdGdA
Output line: 69.5

Input line: Identify normalised inhibition (eCFP-eYFP dual reporter) associated with the substance sense rArCrCrArGrGrArCrArGrCrGrArGrArCrCrGrGdTdT / antisense rCrCrGrGrUrCrUrCrGrCrUrGrUrCrCrUrGrGrUdAdG
Output line: 49.5

Input line: Identify normalised inhibition (eCFP-eYFP dual reporter) associated with the substance sense rArGrGrGrCrArCrUrGrUrGrUrArCrCrCrUrArUdTdT / antisense rArUrArGrGrGrUrArCrArCrArGrUrGrCrCrCrUdGdT
Output line: 55

Input line: Identify normalised inhibition (eCFP-eYFP dual reporter) associated with the substance sense rGrGrGrArArArUrUrCrArGrUrCrUrCrArUrUrCdTdT / antisense rGrArArUrGrArGrArCrUrGrArArUrUrUrCrCrCdTdG
Output line: 72.6

Input line: Identify normalised inhibition (eCFP-eYFP dual reporter) associated with the substance sense rCrUrArCrArArCrUrUrCrArGrGrUrUrUrGrCrCdTdT / antisense rGrGrCrArArArCrCrUrGrArArGrUrUrGrUrArGdCdC
Output line: 57

Input line: Identify normalised inhibition (eCFP-eYFP dual reporter) associated with the substance sense rCrArArGrGrCrArArUrGrGrGrArUrUrCrGrCrAdTdT / antisense rUrGrCrGrArArUrCrCrCrArUrUrGrCrCrUrUrGdCdA
Output line: 64.4

Input line: Identify normalised inhibition (eCFP-eYFP dual reporter) associated with the substance sense rArArGrCrCrUrArUrGrGrGrArUrUrCrGrArArUdTdT / antisense rArUrUrCrGrArArUrCrCrCrArUrArGrGrCrUrUdTdG
Output line: 76

Input line: Identify normalised inhibition (eCFP-eYFP dual reporter) associated with the substance sense rCrGrGrArArGrArCrArArArGrUrGrUrGrGrGrAdTdT / antisense rUrCrCrCrArCrArCrUrUrUrGrUrCrUrUrCrCrGdAdC
Output line: 64.6

Input line: Identify normalised inhibition (eCFP-eYFP dual reporter) associated with the substance sense rArGrGrCrUrGrGrGrUrUrUrCrArUrUrGrUrUrGdTdT / antisense rCrArArCrArArUrGrArArArCrCrCrArGrCrCrUdGdA
Output line: 64.9

// data source = the OligoGym collection
